test system: giant foxtail (Setaria faberii); assay: Test B pre-/postemergence plant response; format: in vivo; settings: Postemergence, 250 g ai/ha; scale 0 to 100
// reported Foxtail, Giant plant response rating for each item listed
Number only, no unit.

• Cc1ccccc1-n1c(-c2cccc(Cl)c2)ncc(C(=O)C2=C(O)CCCC2=O)c1=O [Compound 36] = 98
• Cc1ccc(F)cc1-n1c(-c2ccccc2)ncc(C(=O)C2=C(O)CCCC2=O)c1=O [Compound 44] = 98
• Cc1c(Cl)cccc1-n1c(-c2ccccc2)ncc(C(=O)C2=C(O)CCCC2=O)c1=O [Compound 40] = 100

# query: Foxtail, Giant plant response rating of entry CCCCc1ncc(C(=O)C2=C(O)CCCC2=O)c(=O)n1-c1ccccc1 [Compound 42] 85

###

tested on: barnyardgrass (Echinochloa crus-galli); assay: Test A pre-/postemergence plant response; assay type: in vivo; settings: Postemergence, 125 g ai/ha; 0 to 100 scale where 0 is no effect and 100 is complete control
# cutoff 90 applies to Plant response rating, Barnyardgrass; >= gives label 1, < gives label 0

* CCCn1c(-c2cc(F)cc(F)c2)ncc(C(=O)C2=C(O)CCCC2=O)c1=O | label 1
* CCCc1ncc(C(=O)C2=C(O)CCCC2=O)c(=O)n1Cc1cccc(OC)c1 | label 0
* O=C(C1=C(O)C2CCC(C2)C1=O)c1cnc(-c2ccccc2)n(C2CCCCCC2)c1=O (centres unmarked) | label 1
* O=C1CCCC(O)=C1C(=O)c1cnc(-c2cccc(F)c2)n(CCC(F)(F)F)c1=O | label 0

Kindly review the next molecule as well.
Threshold query (Plant response rating, Barnyardgrass >= 90) on C=CCCn1c(-c2ccccc2)ncc(C(=O)C2=C(O)CCCC2=O)c1=O label 0

###

system: giant foxtail (Setaria faberii); test: Test A pre-/postemergence plant response; format: in vivo; conditions: Preemergence, 125 g ai/ha; 0 to 100 scale, 0 = no effect, 100 = complete control
readout name: Plant response rating, Foxtail, Giant

Known Plant response rating, Foxtail, Giant results, listed for orientation:
- CCCCc1ncc(C(=O)C2=C(O)CCCC2=O)c(=O)n1-c1cccc(C)c1: 50
- CCCCc1ncc(C(=O)C2=C(O)CCCC2=O)c(=O)n1-c1ccccc1: 10
- COCCn1c(-c2cccc(F)c2)ncc(C(=O)C2=C(O)CCCC2=O)c1=O: 50

Now let's try a different one.
Look at this molecule and give its reported Plant response rating, Foxtail, Giant. Cc1ccc(C)c(-n2c(-c3ccccc3)ncc(C(=O)c3cnoc3C3CC3)c2=O)c1 30

###

Plant response rating, Johnsongrass listing for selected compounds.
test system: johnsongrass (Sorghum halepense); assay: Test B pre-/postemergence plant response; type: in vivo; settings: Postemergence, 250 g ai/ha; scale 0 to 100 (0 no effect, 100 complete control)

• CCCCn1c(-c2cc(F)cc(F)c2)ncc(C(=O)C2=C(O)CCCC2=O)c1=O [Compound 121] = 85

Report Plant response rating, Johnsongrass for Cc1ccc(-c2ncc(C(=O)C3=C(O)CCCC3=O)c(=O)n2-c2ccccc2)cc1 [Compound 80] please. 45

Return reported Plant response rating, Johnsongrass; argument: CCCCc1ncc(C(=O)C2=C(O)CCCC2=O)c(=O)n1-c1cccc(C)c1 [Compound 63] 15

Sample O=C1CCCC(O)=C1C(=O)c1cnc(-c2ccsc2)n(-c2ccccc2)c1=O [Compound 56] — what was its Plant response rating, Johnsongrass? 100

Name the recorded Plant response rating, Johnsongrass for CCCc1ncc(C(=O)C2=C(O)CCCC2=O)c(=O)n1-c1ccccc1C [Compound 73] . 75

Suppose we examine the compound Cc1cc(-n2c(-c3ccccc3)ncc(C(=O)C3=C(O)CCCC3=O)c2=O)ccc1F [Compound 53] ; what Plant response rating, Johnsongrass value has been reported? 100

For O=C1CCCC(OC(=O)C2CC2)=C1C(=O)c1cnc(-c2ccccc2)n(-c2ccccc2)c1=O [Compound 88] , what is its reported Plant response rating, Johnsongrass? 100

Fill in: Plant response rating, Johnsongrass of COCCn1c(-c2ccccc2)ncc(C(=O)C2=C(O)CCCC2=O)c1=O [Compound 85] is ___ 98

Please give the measured Plant response rating, Johnsongrass for this compound: Cn1c(-c2ccccc2)ncc(C(=O)C2=C(O)CCCC2=O)c1=O [Compound 55] 20

Cited source: patent US8952024B2
